Measured values drawn from ChEMBL document CHEMBL1144743 for this set.

Kindly supply the reported pKi values for the records listed here.
# subject-of-test: Thromboxane A2 receptor (Homo sapiens, UniProt P21731)
# Sequence (P21731 whole entry): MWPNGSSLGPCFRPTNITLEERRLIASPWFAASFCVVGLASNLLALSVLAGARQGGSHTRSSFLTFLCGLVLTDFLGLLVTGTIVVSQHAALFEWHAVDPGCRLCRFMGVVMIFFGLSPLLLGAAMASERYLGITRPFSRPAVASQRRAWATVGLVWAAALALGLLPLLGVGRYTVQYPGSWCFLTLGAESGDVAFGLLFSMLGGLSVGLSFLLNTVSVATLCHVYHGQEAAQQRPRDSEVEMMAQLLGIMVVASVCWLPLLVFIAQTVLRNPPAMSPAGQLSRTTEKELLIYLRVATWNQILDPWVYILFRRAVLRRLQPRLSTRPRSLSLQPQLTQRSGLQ
# protocol-details: Binding affinity to human recombinant TP receptor by radioligand competition binding assay
Numbers only, as −log10 of the molar value.

Answered examples (4):
compound	pKi
CS(=O)(=O)c1cc(F)cc2c1c(Sc1ccc(Cl)cc1F)c1n2CCC1CC(=O)O (configuration not stated)	6.70
CS(=O)(=O)c1cc(F)cc2c1c(C(=O)c1ccc(Cl)cc1)c1n2CCCC1CC(=O)O (configuration not stated)	6.29
O=C(O)CC1CCn2c1c(Sc1ccc(Cl)cc1)c1c(C3CC3)cc(F)cc12 (configuration not stated)	6.87
CC(O)c1cc(F)cc2c1c(Sc1ccc(Cl)cc1)c1n2CCC1CC(=O)O (configuration not stated)	6.56

Hey, can you go through the list below and give me pKi for every item?
1. CS(=O)(=O)c1cc(F)cc2c1c(C(=O)c1ccc(Cl)cc1)c1n2CCC1CC(=O)O (configuration not stated)
2. CS(=O)(=O)c1cc(F)cc2c1c(C(=O)c1ccc(Cl)cc1)c1n2CCCCC1CC(=O)O (configuration not stated)
3. CC(C)C(O)c1cc(F)cc2c1c(Sc1ccc(Cl)cc1)c1n2CCC1CC(=O)O (configuration not stated)

Result:
1: 5.16; 2: 6.17; 3: 6.32

Hey, can you go through the list below and give me pKi for every item?
1. CS(=O)(=O)c1cc(F)cc2c1c(CCc1ccc(Cl)cc1)c1n2CCC1CC(=O)O (configuration not stated)
2. CS(=O)(=O)c1cc(F)cc2c1c(-c1cccc(-c3ccccc3)c1)c1n2CCC1CC(=O)O (configuration not stated)
3. CC(=O)c1cc(F)cc2c1c(Sc1ccc(Cl)cc1)c1n2CCC1CC(=O)O (configuration not stated)
4. CSC(C)c1cc(F)cc2c1c(Sc1ccc(Cl)cc1)c1n2CCC1CC(=O)O (configuration not stated)
5. CS(=O)(=O)c1cc(F)cc2c1c(C(=O)c1ccc(Cl)cc1)c1n2CCC[C@@H]1CC(=O)O
6. CCC(OC)c1cc(F)cc2c1c(Sc1ccc(Cl)cc1)c1n2CCC1CC(=O)O (configuration not stated)
7. CCC(CC)c1cc(F)cc2c1c(Sc1ccc(Cl)cc1)c1n2CCC1CC(=O)O (configuration not stated)
8. CS(=O)(=O)c1cc(F)cc2c1c(Cc1ccc(Cl)cc1)c1n2CCC1CC(=O)O (configuration not stated)

Result:
1. 6.66
2. 6.51
3. 6.17
4. 7.56
5. 6.77
6. 6.70
7. 6.44
8. 7.93

Hey, can you go through the list below and give me pKi for every item?
1. CS(=O)(=O)c1cc(F)cc2c1c(C(=O)c1ccc(Cl)cc1)c1n2CCC[C@H]1CC(=O)O
2. O=C(O)CC1CCn2c1c(Sc1ccc(Cl)cc1)c1ccc(F)cc12 (configuration not stated)

Result:
5.15
7.77
